From: paper PMC12086749

Target: UniProtKB Q7BK04
Sequence (Q7BK04 entry or part of it): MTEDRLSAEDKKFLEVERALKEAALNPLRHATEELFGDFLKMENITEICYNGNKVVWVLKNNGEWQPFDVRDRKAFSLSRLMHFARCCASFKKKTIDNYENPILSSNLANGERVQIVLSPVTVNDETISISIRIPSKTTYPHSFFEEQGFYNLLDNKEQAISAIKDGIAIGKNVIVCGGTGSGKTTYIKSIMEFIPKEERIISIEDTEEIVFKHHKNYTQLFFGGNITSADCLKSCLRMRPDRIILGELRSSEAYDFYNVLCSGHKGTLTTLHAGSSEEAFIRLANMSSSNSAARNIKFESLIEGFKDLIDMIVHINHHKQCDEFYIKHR
Experiment: in vitro ATPase colorimetric assay of HP0525
Assay type: biochemical
Settings: qualitative statement
Experimental: The HP0525 protein was produced in the E. coli strain BL21 Star (DE3) (Invitrogen) as described previously.[39] The protein concentration was estimated spectroscopically using a NanoDrop (Thermo Scientific) and a calculated extinction coefficient at 280 nm, based on the amino acid composition. The ATPase activity of HP0525 was measured, with and without a specific amount of compound present, using an in vitro ATPase colorimetric assay kit (Innova Biosciences). […]
ENDPOINT_NAME: inhibition of HP0525 (in words)

[[record]]
smiles_code = "C#CCOCCOC(=O)Nc1ccc(S(=O)(=O)Nc2nccn3cc(-c4ccc5ccccc5c4)nc23)cc1"
observed_measurement = "improved inhibition"

[[record]]
smiles_code = "O=C(CCN1C(=O)C=CC1=O)NCCOCCOC(=O)Nc1ccc(S(=O)(=O)Nc2nccn3cc(-c4ccc5ccccc5c4)nc23)cc1"
observed_measurement = "improved inhibition"

[[record]]
smiles_code = "C=CCOCCOC(=O)Nc1ccc(S(=O)(=O)Nc2nccn3cc(-c4ccc5ccccc5c4)nc23)cc1"
observed_measurement = "improved inhibition"

